# TEST SUMMARY: Oral bioavailability in rat at 5 mg/kg
# Assay type: ADME, organism-based
# STATED CONDITIONS: in vivo
bioavailability values, listed per item

Illustrative cases are given below, each with its answer.
STRUCTURE STRING: O=C(C(=O)N1CCN(C(=O)c2ccccc2)CC1)c1c[nH]c2c(-n3cncn3)ncnc12
MEASURED: 15%
--
STRUCTURE STRING: Cc1ccn(-c2ncnc3c(C(=O)C(=O)N4CCN(C(=O)c5ccccc5)CC4)c[nH]c23)n1
MEASURED: 45%

Please examine the following record next.
Prompt: Name the reported bioavailability value associated with the compound Cc1ncn(-c2ncnc3c(C(=O)C(=O)N4CCN(C(=O)c5ccccc5)CC4)c[nH]c23)n1
Completion: 19%

* * *

# TEST SUMMARY: Therapeutic index, ratio of CC50 for human HeLa cells expressing CD4 and CCR5 to EC50 for HIV1 JRFL infected in human HeLa cells expressing CD4 and CCR5
# Format: cell-based
# STATED CONDITIONS: read-out: Ratio CC50/EC50
selectivity ratio values, listed per item

STRUCTURE STRING: O=C(C(=O)N1CCN(C(=O)c2ccccc2)CC1)c1c[nH]c2c(-c3cnccn3)ncnc12
selectivity ratio: > 15000

Please examine the following record next.
Prompt: Name the reported selectivity ratio value associated with the compound O=C(C(=O)N1CCN(C(=O)c2ccccc2)CC1)c1c[nH]c2c(-c3ccccn3)ncnc12
Completion: > 15000

* * *

# TEST SUMMARY: Cytotoxicity against human HeLa cells expressing CD4 and CCR5 assessed as cell viability after 6 days by XTT assay
# Format: cell-based
PROPERTY: CC50 at 144 h

Illustrative cases are given below, each with its answer.
STRUCTURE STRING: CN1CCN(c2ncnc3c(C(=O)C(=O)N4CCN(C(=O)c5ccccc5)CC4)c[nH]c23)CC1
CC50 at 144 h: > 300 µM
--
STRUCTURE STRING: Cc1ccn(-c2ncnc3c(C(=O)C(=O)N4CCN(C(=O)c5ccccc5)CC4)c[nH]c23)n1
CC50 at 144 h: > 300 µM
--
STRUCTURE STRING: Cc1cc(-c2ncnc3c(C(=O)C(=O)N4CCN(C(=O)c5ccccc5)CC4)c[nH]c23)on1
CC50 at 144 h: 177 µM
--
STRUCTURE STRING: O=C(C(=O)N1CCN(C(=O)c2ccccc2)CC1)c1c[nH]c2c(-c3cncnc3)ncnc12
CC50 at 144 h: > 300 µM
--
STRUCTURE STRING: O=C(C(=O)N1CCN(C(=O)c2ccccc2)CC1)c1c[nH]c2c(-c3cccnc3)ncnc12
CC50 at 144 h: > 300 µM
--
STRUCTURE STRING: COc1ncnc2c(C(=O)C(=O)N3CCN(C(=O)c4ccccc4)CC3)c[nH]c12
CC50 at 144 h: > 300 µM

Prompt: Name the reported CC50 at 144 h value associated with the compound N#Cc1ncnc2c(C(=O)C(=O)N3CCN(C(=O)c4ccccc4)CC3)c[nH]c12
Completion: > 300 µM

Prompt: Name the reported CC50 at 144 h value associated with the compound O=C(C(=O)N1CCN(C(=O)c2ccccc2)CC1)c1c[nH]c2c(-c3ccccn3)ncnc12
Completion: 6 µM

Prompt: Name the reported CC50 at 144 h value associated with the compound O=C(C(=O)N1CCN(C(=O)c2ccccc2)CC1)c1c[nH]c2c(-c3ccncc3)ncnc12
Completion: > 300 µM

Prompt: Name the reported CC50 at 144 h value associated with the compound O=C(C(=O)N1CCN(C(=O)c2ccccc2)CC1)c1c[nH]c2c(-n3nccn3)ncnc12
Completion: > 150 µM

Prompt: Name the reported CC50 at 144 h value associated with the compound CCOc1ncnc2c(C(=O)C(=O)N3CCN(C(=O)c4ccccc4)CC3)c[nH]c12
Completion: > 150 µM

Prompt: Name the reported CC50 at 144 h value associated with the compound Cc1cnn(-c2ncnc3c(C(=O)C(=O)N4CCN(C(=O)c5ccccc5)CC4)c[nH]c23)c1
Completion: > 300 µM

Prompt: Name the reported CC50 at 144 h value associated with the compound CC(=O)c1ncnc2c(C(=O)C(=O)N3CCN(C(=O)c4ccccc4)CC3)c[nH]c12
Completion: > 300 µM

Prompt: Name the reported CC50 at 144 h value associated with the compound Cc1ncn(-c2ncnc3c(C(=O)C(=O)N4CCN(C(=O)c5ccccc5)CC4)c[nH]c23)n1
Completion: > 150 µM

Prompt: Name the reported CC50 at 144 h value associated with the compound O=C(C(=O)N1CCN(C(=O)c2ccccc2)CC1)c1c[nH]c2c(-c3cnccn3)ncnc12
Completion: 78 µM

Prompt: Name the reported CC50 at 144 h value associated with the compound O=C(C(=O)N1CCN(C(=O)c2ccccc2)CC1)c1c[nH]c2c(Cl)ncnc12
Completion: > 300 µM

Reference for the values: ChEMBL document CHEMBL2311313
